system: Plasmodium berghei; experiment: Screen against P. berghei liver stage (PbLuc), transformed with Luciferase, at 2uM; assay type: functional, HepG2; conditions: tested at 2 uM
Hit rate of the full screen: of about 68,000 compounds, about 2,700 (4%) showed an effect of 50% or more. The sample as a whole holds a higher share of strong results than the screen did.
Decide by INHIBITION: equal to or exceeding 30% means 1, less means -1.

Example cases with answers are listed next.
CCOC(=O)c1c(NC(=O)CN2CCN(C(C)=O)CC2)sc2c1CCC2 | -1
CCn1ccnc1CN1CCN(CC(O)CN2CCOCC2)CC1 (centres undefined) | 1
CCOc1nc2cnccc2n(CC(=O)NCCc2ccccc2)c1=O | -1
Cc1cnn(CC(C)NCC(=O)Nc2ccc(Cl)cn2)c1 (centres undefined) | 1
Fc1ccc(CC2CCN(Cc3cscn3)CC2)cc1 | -1
C=C(C)COc1ccccc1CN1CCCC(C(=O)NCCCO)C1 (centres undefined) | -1
CCCNC(=O)[C@@H]1CCCN1[C@@H](C(=O)NC)C1CC1 | 1
CN(C)C(=O)COCc1cncc2c1CCN(Cc1cnn(C)c1)C2 | -1

Next:
Determine whether measured INHIBITION meets or exceeds 30% for `O=C(Cc1cnccn1)N1C[C@@H]2CC[C@H]1CN(Cc1cscn1)C2` -1

====

tested on: Plasmodium berghei; assay: Screen against P. berghei liver stage (PbLuc), transformed with Luciferase, at 2uM; type: functional, HepG2; details: tested at 2 uM
Hit rate of the full screen: of about 68,000 compounds, about 2,700 (4%) showed an effect of 50% or more. The sample holds strong results, similar compounds and a random draw of the others, so the mix is not that of the screen.
measure name: INHIBITION (%)
// return numeric value only (unit: %, not printed)

These solved cases illustrate the format of a correct answer.
CC(=O)c1c(C)nn(S(=O)(=O)c2ccc(F)cc2)c1C | 16.13
Cc1ccc(CN2CCC3(CC2)NC(=O)CC3c2ccccc2)s1 (centres undefined) | 57.85
O=C1COC2(COCCN(c3cnccn3)C2)CN1c1cccc(F)c1 (centres undefined) | 50.81
Cc1nn(C)c(N(C)C)c1CNCCC(=O)NC1CCCCC1 | 68.24
Cc1ccc(C2CCCCCN2CCCS(C)(=O)=O)o1 (centres undefined) | 38.67

Look up INHIBITION of `CC(=O)N(CCc1nc(-c2cc(C(N)=O)oc2C)cs1)C(C)C` and report it. 10.22

Give me measured INHIBITION, please, for this compound: Cc1ccc(C2CCCCCN2CCNS(C)(=O)=O)o1 (centres undefined) 48.21

Identify measured INHIBITION associated with `Cc1nc(NCc2nncn2C2CC2)c2c(CC(C)C)csc2n1` 36.86

====

Recorded measurements of INHIBITION, one per entry
tested on: Plasmodium berghei; assay: Screen against P. berghei liver stage (PbLuc), transformed with Luciferase, at 2uM; assay type: functional, HepG2; conditions: tested at 2 uM
Screen size: about 68,000 compounds; about 2,700 (4%) showed an effect of 50% or more. What follows is part of a selection rich in strong results, with near analogues and random picks from the rest.

Worked cases, answers included:
O=S(=O)(c1ccccc1)N1C[C@@H]2COC[C@]2(CN2CCOCC2)C1 | 29.19%
Cc1cccc(C)c1OCC(=O)N1CCOCC1c1ncon1 (stereo not given) | 29.54%
CC(O)c1cn(Cc2cccc(C(F)(F)F)c2)nn1 (stereo not given) | 19.08%
Cc1cc(NC(=O)CNC2CCCN(c3cccnn3)C2)on1 (stereo not given) | -3.06%
c1cc(CCNc2ccc(CC3CCNC3)cn2)ccn1 (stereo not given) | -6.19%
Cc1ccc(N2CCCC(NCC(=O)Nc3cc(C)no3)C2)nn1 (stereo not given) | 6.3%
COc1ccc(-c2ncc(-c3nccn3CCN(C)C)cn2)cc1 | 10.63%
Cn1ccc(C(=O)N2CCCC2c2cc[nH]n2)n1 (stereo not given) | 16.43%
O=C(c1c[nH]cn1)N1CCC(F)(F)C2(CCN(c3ncccn3)C2)C1 (stereo not given) | 38%
CC(C)c1cc(NC(=O)CNC2CCCN(c3cccnn3)C2)on1 (stereo not given) | 53.98%

Return reported INHIBITION. Input molecule: `CN(C)C(=O)CN1C[C@H]2CCN(Cc3ccccc3)CC[C@H]2S1(=O)=O` -10.78%

====

test system: Plasmodium berghei; assay: Screen against P. berghei liver stage (PbLuc), transformed with Luciferase, at 2uM; format: functional, HepG2; conditions: tested at 2 uM
About 2,700 (4%) of roughly 68,000 compounds showed an effect of 50% or more. The list comes from a sample in which strong results are over-represented; it also holds close analogues and randomly drawn compounds.
Note to self: use 1.0 only for INHIBITION readings below 30%; a reading exactly at 30% still gets 0.0.

Please review the following examples before continuing.
CCn1cnnc1CCNC(=O)CCNC(=O)c1ccccc1F | 0.0
O=C(NCC1CCOC1)N1CCN(Cc2ccc3c(c2)CCO3)CC1 (stereo not drawn) | 1.0
Cc1ccccc1CC(=O)N[C@@H]1CCC[C@@H](N2CCNC(=O)C2)[C@@H]1O | 1.0
O=C(c1cccnc1)N1CCC2(CCN(C(=O)N3CCCC3)CC2)C1 | 1.0
CCn1cnnc1CNC(=O)c1cc(Cl)ccc1O | 1.0
CC(CNC(=O)c1cc(Cl)ccc1F)N1CCCC1 (stereo not drawn) | 0.0
COc1cc(C(C)NCc2c[nH]nc2C)ccc1OCCO (stereo not drawn) | 0.0

Okay, now this compound:
Dear reviewer, please state whether O=C(NCC1CCCO1)N1CCN(Cc2ccc3c(c2)CCO3)CC1 (stereo not drawn) has INHIBITION strictly beneath 30%. 0.0

====

test system: Plasmodium berghei; experiment: Screen against P. berghei liver stage (PbLuc), transformed with Luciferase, at 2uM; assay type: functional, HepG2; conditions: tested at 2 uM
About 2,700 (4%) of roughly 68,000 compounds showed an effect of 50% or more. Only a selection was taken, and strong results are over-represented in it overall.
Each item that follows carries a reported INHIBITION.
Please state the figure in %; there is no need to write the unit.

Tell me INHIBITION reported for `CN(CCc1ccccn1)CCc1nccs1` 15.84

Report INHIBITION, nothing else, for this compound: `O=C(NCCN1CCOCC1)c1ccc(-n2ccc3ccccc32)s1` 52.4

Indicate its recorded INHIBITION; the compound in question is CC(C)C(=O)NC1COC2(CCN(C(=O)c3cccnc3)CC2)C1 (configuration not stated) 9.53

Output INHIBITION of `O=C1NC[C@@]2(C(=O)O)CN(Cc3cccc(OC4CCCC4)c3)C[C@@H]12` 62

Supply measured INHIBITION of `CN(CCc1ccncc1)Cc1nccn1Cc1ccccc1` in your reply. 33.78

Supply INHIBITION value. Item: `O=C1NC[C@@]2(C(=O)O)CN(Cc3cccc(Oc4ccccc4)c3)C[C@@H]12` 24.55

# return recorded INHIBITION for entry `O=C1NC[C@@]2(C(=O)O)CN(Cc3cccc(CN4CCOCC4)c3)C[C@@H]12` 34.46

====

We begin with a simple list: items and their reported INHIBITION.
test system: Plasmodium berghei; experiment: Screen against P. berghei liver stage (PbLuc), transformed with Luciferase, at 2uM; format: functional, HepG2; conditions: tested at 2 uM
In all, about 68,000 compounds went through this assay and about 2,700 (4%) showed an effect of 50% or more. The full list was thinned out, with strong results kept by preference.
Supply the numeric figure in %, leaving out any unit text.

c1ccc(-c2ncc(CN3CCCCC3CCn3cccn3)cn2)nc1 (stereo not drawn) | 11.38

Now look at this one.
Supply recorded INHIBITION for `Cc1nc(C)c(C(=O)NCCNc2ncccc2C(F)(F)F)s1` here. -90.65

====

tested on: Plasmodium berghei; assay: Screen against P. berghei liver stage (PbLuc), transformed with Luciferase, at 2uM; type: functional, HepG2; settings: tested at 2 uM
Among all 68,000 compounds or so, about 2,700 (4%) showed an effect of 50% or more. The entries come from a sample that favours strong results as a whole.
measure name: INHIBITION (%)
Give the quantity in %, number only.

Use these answered entries as a reference point.
COc1no[n+]([O-])c1-c1ccccc1 | 32.19
CCC(C)N(Cc1ccsc1)C(=O)c1ccc(CO)cc1 (stereo not drawn) | 52.98

Output measured INHIBITION for this item: `Cc1nc(O)c2nnn(C[C@H]3CCCN3C(=O)C3CCCC3)c2n1` 50.32

====

system: Plasmodium berghei; experiment: Screen against P. berghei liver stage (PbLuc), transformed with Luciferase, at 2uM; type: functional, HepG2; settings: tested at 2 uM
Among all 68,000 compounds or so, about 2,700 (4%) showed an effect of 50% or more. The list comes from a sample in which strong results are over-represented; it also holds close analogues and randomly drawn compounds.
measure name: INHIBITION
Numeric answer plus unit only.

Examples with answers:
COc1ccc(C(=O)NCc2cccnc2N2CCOCC2)o1 | -49.51%
CNc1ccnc(N2C[C@H]3CC[C@@H](C2)N(CCOC)C3=O)n1 | 40.51%
CC(Nc1cccc2c1OCCO2)C(=O)Nc1cccc(C#N)c1 (stereo unspecified) | 17.64%
CCc1nc(N2CCCC(O)(CO)CC2)ncc1C (stereo unspecified) | 32.1%
CC(C)OCCCNC(=O)CS(=O)(=O)Cc1ccc(C(C)(C)C)cc1 | 33.22%
Cc1cc(C(=O)N2CCc3nc(N4CCCC4)nc(C)c3CC2)c(C)o1 | 22.96%
COc1cc(N2C[C@H]3CN(Cc4ccccn4)C[C@H]3C2)ncn1 | -37.2%
Cc1noc(-c2ccnc(Oc3cccc(CN4CCCC4)c3F)c2)n1 | 43.15%

Could you please provide reported INHIBITION for `NCCCNS(=O)(=O)Cc1ccc(Br)cc1` ? Thanks! 5.28%

Identify measured INHIBITION associated with COCC(O)CN(C)C(=O)NCc1ccc(-c2ccn[nH]2)cc1 (stereo unspecified) -0.21%

Report measured INHIBITION; entry is Cc1cccc(CNC(Cc2ccsc2)c2nccs2)n1 (stereo unspecified) 24.13%

Hello, please tell me recorded INHIBITION for this one: CS(=O)(=O)NCCCN1CCCC1c1ccccc1 (stereo unspecified) 42.11%

// fetch INHIBITION given entry CCOc1ccccc1C(=O)N1CCCC1c1ncc2c(n1)CCNC2 (stereo unspecified) -2.7%

Tell me INHIBITION reported for `NC(=O)C1CCN(C(=O)NCc2ccc3c(c2)OCCO3)CC1` 42.17%

Determine from records and report INHIBITION for `O=S(=O)(Cc1ccc(Br)cc1)NCCO` 17.51%

Specify measured INHIBITION for `Fc1cccc(N2CCc3ncnc(N4CCOCC4)c3CC2)c1` . -7.49%
